# System: NCI-H647
# METHOD_NOTES: relative viability (nuclei count vs DMSO), 5 days (fraction); higher = more cells survive
# TEST_CONDITIONS: first compound 1 µM
// relative viability lookup, one value per entry
QUANTITY_NAME: relative viability

molecule="CCN(CC)CCCCNc1ncc2cc(-c3cc(OC)cc(OC)c3)c(NC(=O)NC(C)(C)C)nc2n1 + C[C@@H](Oc1cc(-c2cnn(C3CCNCC3)c2)cnc1N)c1c(Cl)ccc(F)c1Cl [Crizotinib] (partner 1 µM)" test_value=0.774
molecule="O=c1cc(N2CCOCC2)oc2c(-c3cccc4c3sc3ccccc34)cccc12 + CC(C)C[C@H](NC(=O)[C@H](Cc1ccccc1)NC(=O)c1cnccn1)B(O)O [Bortezomib] (partner 0.002 µM)" test_value=0.924
molecule="O=c1cc(N2CCOCC2)oc2c(-c3cccc4c3sc3ccccc34)cccc12 + CS(=O)(=O)N1CCN(Cc2cc3nc(-c4cccc5[nH]ncc45)nc(N4CCOCC4)c3s2)CC1 [Pictilisib] (partner 1 µM)" test_value=0.439
molecule="CCN(CC)CCCCNc1ncc2cc(-c3cc(OC)cc(OC)c3)c(NC(=O)NC(C)(C)C)nc2n1 + N=C(N)NC(=N)NCCc1ccccc1 [Phenformin] (partner 250 µM)" test_value=0.239
molecule="CCN(CC)CCCCNc1ncc2cc(-c3cc(OC)cc(OC)c3)c(NC(=O)NC(C)(C)C)nc2n1 + Nc1ncn([C@H]2C[C@H](O)[C@@H](CO)O2)c(=O)n1 [Decitabine] (partner 2 µM)" test_value=0.361
molecule="CCN(CC)CCCCNc1ncc2cc(-c3cc(OC)cc(OC)c3)c(NC(=O)NC(C)(C)C)nc2n1 + NC(=O)Nc1cc(-c2cccc(F)c2)sc1C(=O)N[C@H]1CCCNC1 [AZD7762] (partner 0.2 µM)" test_value=0.247

* * *

// relative viability lookup, one value per entry
# Test system: LCLC-103H
# METHOD_NOTES: relative viability (nuclei count vs DMSO), 5 days (fraction); higher = more cells survive
# TEST_CONDITIONS: first compound 0.03162 µM
QUANTITY_NAME: relative viability

molecule="CCN(CC)CCCCNc1ncc2cc(-c3cc(OC)cc(OC)c3)c(NC(=O)NC(C)(C)C)nc2n1 + COc1cc2c(Oc3ccc(NC(=O)C4(C(=O)Nc5ccc(F)cc5)CC4)cc3F)ccnc2cc1OCCCN1CCOCC1 [Foretinib] (partner 0.25 µM)" target_desc=LCLC-103H quantity_name="relative viability" test_value=0.866
molecule="O=c1cc(N2CCOCC2)oc2c(-c3cccc4c3sc3ccccc34)cccc12 + Cc1nc(Nc2ncc(C(=O)Nc3c(C)cccc3Cl)s2)cc(N2CCN(CCO)CC2)n1 [Dasatinib] (partner 0.075 µM)" target_desc=LCLC-103H quantity_name="relative viability" test_value=0.412
molecule="O=c1cc(N2CCOCC2)oc2c(-c3cccc4c3sc3ccccc34)cccc12 + Nc1ncn([C@H]2C[C@H](O)[C@@H](CO)O2)c(=O)n1 [Decitabine] (partner 2 µM)" target_desc=LCLC-103H quantity_name="relative viability" test_value=0.763
molecule="O=c1cc(N2CCOCC2)oc2c(-c3cccc4c3sc3ccccc34)cccc12 + COc1cccc2cc(-c3nc([C@H]4CC[C@H](C(=O)O)CC4)n4ncnc(N)c34)[nH]c12 [OSI-027] (partner 0.5 µM)" target_desc=LCLC-103H quantity_name="relative viability" test_value=0.462
molecule="CCN(CC)CCCCNc1ncc2cc(-c3cc(OC)cc(OC)c3)c(NC(=O)NC(C)(C)C)nc2n1 + CC(=O)Nc1cccc(-n2c(=O)n(C3CC3)c(=O)c3c(Nc4ccc(I)cc4F)n(C)c(=O)c(C)c32)c1 [Trametinib] (partner 0.02 µM)" target_desc=LCLC-103H quantity_name="relative viability" test_value=0.719
molecule="O=c1cc(N2CCOCC2)oc2c(-c3cccc4c3sc3ccccc34)cccc12 + C[C@@H](Oc1cc(-c2cnn(C3CCNCC3)c2)cnc1N)c1c(Cl)ccc(F)c1Cl [Crizotinib] (partner 1 µM)" target_desc=LCLC-103H quantity_name="relative viability" test_value=0.976
molecule="CCN(CC)CCCCNc1ncc2cc(-c3cc(OC)cc(OC)c3)c(NC(=O)NC(C)(C)C)nc2n1 + COc1cccc2cc(-c3nc([C@H]4CC[C@H](C(=O)O)CC4)n4ncnc(N)c34)[nH]c12 [OSI-027] (partner 0.5 µM)" target_desc=LCLC-103H quantity_name="relative viability" test_value=0.482
molecule="O=c1cc(N2CCOCC2)oc2c(-c3cccc4c3sc3ccccc34)cccc12 + Nc1nc2[nH]cc(CCc3ccc(C(=O)N[C@@H](CCC(=O)O)C(=O)O)cc3)c2c(=O)[nH]1 [Pemetrexed] (partner 0.2 µM)" target_desc=LCLC-103H quantity_name="relative viability" test_value=0.503
molecule="CCN(CC)CCCCNc1ncc2cc(-c3cc(OC)cc(OC)c3)c(NC(=O)NC(C)(C)C)nc2n1 + CS(=O)(=O)N1CCN(Cc2cc3nc(-c4cccc5[nH]ncc45)nc(N4CCOCC4)c3s2)CC1 [Pictilisib] (partner 1 µM)" target_desc=LCLC-103H quantity_name="relative viability" test_value=0.661
molecule="O=c1cc(N2CCOCC2)oc2c(-c3cccc4c3sc3ccccc34)cccc12 + N=C(N)NC(=N)NCCc1ccccc1 [Phenformin] (partner 250 µM)" target_desc=LCLC-103H quantity_name="relative viability" test_value=0.31
molecule="O=c1cc(N2CCOCC2)oc2c(-c3cccc4c3sc3ccccc34)cccc12 + C[C@]1(O)C[C@@H](c2nc(-c3ccc4ccc(-c5ccccc5)nc4c3)c3c(N)nccn32)C1 [Linsitinib] (partner 1 µM)" target_desc=LCLC-103H quantity_name="relative viability" test_value=1.04
